Values were extracted from paper PMC4912613.

- System: TM90C2A (DHFR, folate pathway; compared with 3D7)
- assay comment: Cross-resistance EC50 assay, TM90C2A
- Type: cell-based
- test settings: Plasmodium falciparum, 48 h, read-out: TM90C2A (3D7 Parent) Average EC50
Assignment: determine reported EC50 for the given compounds.
# number only, unit nM dropped from output

I'd like to know its EC50. The compound in question is CCCN(CCC)CC(O)COc1ccccc1C(=O)Nc1ccccc1 (stereo not drawn)
377

I'd like to know its EC50. The compound in question is CCOc1cc2c(cc1OCC)C(c1cc(Cl)ccc1O)NCC2 (stereo not drawn)
1440

I'd like to know its EC50. The compound in question is OC(CNC1CCCCC1)Cn1c2ccc(I)cc2c2cc(I)ccc21 (stereo not drawn)
207

I'd like to know its EC50. The compound in question is CN(C)CCCNCc1ccc(-c2ccc(Cl)c(Cl)c2)o1
569

I'd like to know its EC50. The compound in question is O=C(Nc1ccc(Cl)c(Cl)c1)Nc1ccc(Cl)c(Cl)c1
566

I'd like to know its EC50. The compound in question is Nc1ccc(-c2nc3cc(Cc4ccc5[nH]c(-c6ccc(N)cc6)nc5c4)ccc3[nH]2)cc1
298

I'd like to know its EC50. The compound in question is CN1CCN(c2ccc(Nc3c4ccccc4nc4ccccc34)cc2)CC1
162

I'd like to know its EC50. The compound in question is CCCCCCCN(Cc1ccc(OC(C)(C)C(=O)OCC)cc1)C(=O)Nc1ccc(Cl)cc1OCC
891

I'd like to know its EC50. The compound in question is COCCNCC(O)Cn1c2ccc(Cl)cc2c2cc(Cl)ccc21 (stereo not drawn)
868
